assaySummary: Hemolytic activity in human RBC assessed as hemolysis incubated for 1 hr
Type: toxicity, cell-based, Erythrocyte
testConditions: red blood cells
Listed compounds paired with reported HC50 at 1 h
The response must be a number in µg/mL with no trailing unit.

Example entries and their recorded answers appear below.
# lookup: HC50 at 1 h of "CO/N=C(\C(=O)N1CCN(c2ccc3c4c(cccc24)C(=O)N(c2nnc(C)s2)C3=O)CC1)c1csc(N)n1"
265

# lookup: HC50 at 1 h of "CO/N=C(\C(=O)N1CCN(c2ccc3c4c(cccc24)C(=O)N(c2nccs2)C3=O)CC1)c1csc(N)n1"
311

Next:
# lookup: HC50 at 1 h of "CO/N=C(\C(=O)N1CCN(c2ccc3c4c(cccc24)C(=O)N(CCO)C3=O)CC1)c1csc(N)n1"
214

# lookup: HC50 at 1 h of "CCON1C(=O)c2cccc3c(N4CCN(C(=O)/C(=N\OC)c5csc(N)n5)CC4)ccc(c23)C1=O"
509

# lookup: HC50 at 1 h of "CO/N=C(\C(=O)N1CCN(c2ccc3c4c(cccc24)C(=O)N(N)C3=O)CC1)c1csc(N)n1"
250

# lookup: HC50 at 1 h of "CO/N=C(\C(=O)N1CCN(c2ccc3c4c(cccc24)C(=O)N(c2nc4ccccc4s2)C3=O)CC1)c1csc(N)n1"
334

----------
Listed compounds paired with reported MIC
System: Staphylococcus aureus
assaySummary: Antibacterial activity against Staphylococcus aureus assessed as bacterial growth inhibition measured after 24 hrs by two fold serial dilution technique
Format: functional
The response must be a number in µg/mL with no trailing unit.

# lookup: MIC of "CO/N=C(\C(=O)N1CCN(c2ccc3c4c(cccc24)C(=O)N(C)C3=O)CC1)c1csc(N)n1"
16

# lookup: MIC of "CO/N=C(\C(=O)N1CCN(c2ccc3c4c(cccc24)C(=O)N(CCN(C)C)C3=O)CC1)c1csc(N)n1"
16

# lookup: MIC of "CO/N=C(\C(=O)N1CCN(c2ccc3c4c(cccc24)C(=O)N(c2ncc(C)s2)C3=O)CC1)c1csc(N)n1"
128

# lookup: MIC of "CO/N=C(\C(=O)N1CCN(c2ccc3c4c(cccc24)C(=O)N(OC)C3=O)CC1)c1csc(N)n1"
128

# lookup: MIC of "CCCCCCCCCCCCN1C(=O)c2cccc3c(N4CCN(C(=O)/C(=N\OC)c5csc(N)n5)CC4)ccc(c23)C1=O"
16

# lookup: MIC of "CO/N=C(\C(=O)N1CCN(c2ccc3c4c(cccc24)C(=O)N(CC#N)C3=O)CC1)c1csc(N)n1"
64

# lookup: MIC of "CO/N=C(\C(=O)N1CCN(c2ccc3c4c(cccc24)C(=O)N(c2nc4ccccc4s2)C3=O)CC1)c1csc(N)n1"
128

# lookup: MIC of CCn1cc(C(=O)O)c(=O)c2cc(F)c(N3CCNCC3)cc21 [NORFLOXACIN]
8

# lookup: MIC of "CCON1C(=O)c2cccc3c(N4CCN(C(=O)/C(=N\OC)c5csc(N)n5)CC4)ccc(c23)C1=O"
128

# lookup: MIC of "CO/N=C(\C(=O)N1CCN(c2ccc3c4c(cccc24)C(=O)N(N)C3=O)CC1)c1csc(N)n1"
64

# lookup: MIC of "CO/N=C(\C(=O)N1CCN(c2ccc3c4c(cccc24)C(=O)N(C(CO)CO)C3=O)CC1)c1csc(N)n1"
64

# lookup: MIC of "CO/N=C(\C(=O)N1CCN(c2ccc3c4c(cccc24)C(=O)N(c2nccs2)C3=O)CC1)c1csc(N)n1"
16

# lookup: MIC of "CO/N=C(\C(=O)N1CCN(c2ccc3c4c(cccc24)C(=O)N(NC(C)=O)C3=O)CC1)c1csc(N)n1"
64

# lookup: MIC of O=C(O)c1cn(C2CC2)c2cc(N3CCNCC3)c(F)cc2c1=O [CIPROFLOXACIN]
2

# lookup: MIC of "CO/N=C(\C(=O)N1CCN(c2ccc3c4c(cccc24)C(=O)N(O)C3=O)CC1)c1csc(N)n1"
64

# lookup: MIC of "CCCCN1C(=O)c2cccc3c(N4CCN(C(=O)/C(=N\OC)c5csc(N)n5)CC4)ccc(c23)C1=O"
64

# lookup: MIC of "CO/N=C(\C(=O)N1CCN(c2ccc3c4c(cccc24)C(=O)N(c2nc4ccccc4[nH]2)C3=O)CC1)c1csc(N)n1"
128

----------
System: Staphylococcus aureus
assaySummary: Antibacterial activity against methicillin-resistant Staphylococcus aureus assessed as bacterial growth inhibition measured after 24 hrs by two fold serial dilution technique
Type: functional
endpoint: log10(MIC) (log10 of the value in µg/mL)
Hi team, quick reminder: these entries are log10 of MIC (µg/mL).

# lookup: log10(MIC) of "CO/N=C(\C(=O)N1CCN(c2ccc3c4c(cccc24)C(=O)N(CCN(C)C)C3=O)CC1)c1csc(N)n1"
-0.30

# lookup: log10(MIC) of "CO/N=C(\C(=O)N1CCN(c2ccc3c4c(cccc24)C(=O)N(C2CCCCC2)C3=O)CC1)c1csc(N)n1"
1.20

# lookup: log10(MIC) of "CN(C)[C@@H]1C(O)=C(C(N)=O)C(=O)[C@@]2(O)C(O)=C3C(=O)c4c(O)cccc4[C@@](C)(O)[C@H]3C[C@@H]12"
0.00

Next:
# lookup: log10(MIC) of "CCON1C(=O)c2cccc3c(N4CCN(C(=O)/C(=N\OC)c5csc(N)n5)CC4)ccc(c23)C1=O"
0.90

# lookup: log10(MIC) of "CO/N=C(\C(=O)N1CCN(c2ccc3c4c(cccc24)C(=O)N(C2CCCC2)C3=O)CC1)c1csc(N)n1"
0.90

# lookup: log10(MIC) of "CO/N=C(\C(=O)N1CCN(c2ccc3c4c(cccc24)C(=O)N(N)C3=O)CC1)c1csc(N)n1"
0.60

# lookup: log10(MIC) of "CO/N=C(\C(=O)N1CCN(c2ccc3c4c(cccc24)C(=O)N(c2nccs2)C3=O)CC1)c1csc(N)n1"
0.30

# lookup: log10(MIC) of "CO/N=C(\C(=O)N1CCN(c2ccc3c4c(cccc24)C(=O)N(CCO)C3=O)CC1)c1csc(N)n1"
0.30

----------
assaySummary: Hemolytic activity in human RBC assessed as hemolysis incubated for 1 hr
Type: toxicity, cell-based, Erythrocyte
testConditions: red blood cells
Listed compounds paired with reported HC50 at 1 h
The response must be a number in µg/mL with no trailing unit.

Example entries and their recorded answers appear below.
# lookup: HC50 at 1 h of "CCCCCCCCCCCCN1C(=O)c2cccc3c(N4CCN(C(=O)/C(=N\OC)c5csc(N)n5)CC4)ccc(c23)C1=O"
359

# lookup: HC50 at 1 h of "CO/N=C(\C(=O)N1CCN(c2ccc3c4c(cccc24)C(=O)N(O)C3=O)CC1)c1csc(N)n1"
277

# lookup: HC50 at 1 h of "CO/N=C(\C(=O)N1CCN(c2ccc3c4c(cccc24)C(=O)N(NC(C)=O)C3=O)CC1)c1csc(N)n1"
180

# lookup: HC50 at 1 h of "CO/N=C(\C(=O)N1CCN(c2ccc3c4c(cccc24)C(=O)N(c2ncc(C)s2)C3=O)CC1)c1csc(N)n1"
234

# lookup: HC50 at 1 h of "CO/N=C(\C(=O)N1CCN(c2ccc3c4c(cccc24)C(=O)N(c2nc4ccccc4[nH]2)C3=O)CC1)c1csc(N)n1"
367

Next:
# lookup: HC50 at 1 h of "CO/N=C(\C(=O)N1CCN(c2ccc3c4c(cccc24)C(=O)N(OC)C3=O)CC1)c1csc(N)n1"
513

# lookup: HC50 at 1 h of "CO/N=C(\C(=O)N1CCN(c2ccc3c4c(cccc24)C(=O)N(C)C3=O)CC1)c1csc(N)n1"
343

# lookup: HC50 at 1 h of "CO/N=C(\C(=O)N1CCN(c2ccc3c4c(cccc24)C(=O)N(CC#N)C3=O)CC1)c1csc(N)n1"
299

# lookup: HC50 at 1 h of "CO/N=C(\C(=O)N1CCN(c2ccc3c4c(cccc24)C(=O)N(NCCO)C3=O)CC1)c1csc(N)n1"
325

# lookup: HC50 at 1 h of "CO/N=C(\C(=O)N1CCN(c2ccc3c4c(cccc24)C(=O)N(C2CC2)C3=O)CC1)c1csc(N)n1"
266

----------
Test system: Staphylococcus
assaySummary: Binding affinity to Staphylococcus aureus PBP2a measured after 6 hrs by ELISA
testConditions: filed as positive allosteric modulator
Could you please mark satisfied for values of Activity below 5 µg/mL and not satisfied for values at or above it?

Previously resolved entries follow.
Does the reported Activity of "CO/N=C(\C(=O)N[C@@H]1C(=O)N2C(C(=O)O)=CCS[C@H]12)c1csc(N)n1" stay below 5 µg/mL?
not satisfied

Does the reported Activity of "CO/N=C(\C(=O)N1CCN(c2ccc3c4c(cccc24)C(=O)N(OC)C3=O)CC1)c1csc(N)n1" stay below 5 µg/mL?
not satisfied

Does the reported Activity of "CN(C)CCN1C(=O)c2cccc3c(Br)ccc(c23)C1=O" stay below 5 µg/mL?
not satisfied

Does the reported Activity of "CCn1cc(C(=O)O)c(=O)c2cc(F)c(N3CCNCC3)cc21" stay below 5 µg/mL?
not satisfied

Does the reported Activity of "CN(C)CCN1C(=O)c2cccc3c(N4CCNCC4)ccc(c23)C1=O" stay below 5 µg/mL?
satisfied

# ---- query molecule ----
Does the reported Activity of "CO/N=C(\C(=O)N1CCN(c2ccc3c4c(cccc24)C(=O)N(CCN(C)C)C3=O)CC1)c1csc(N)n1" stay below 5 µg/mL?
satisfied
